Tested on: SNB-78 CNS
protocol.notes: NCI tumour cell line growth inhibition, 48 h
Known TGI of a selection of molecules

# molecule, TGI
rows = [
    ("O=C(O)c1c2c(c(C(=O)O)c3ccccc13)-c1ccccc1-2", "> 100 µM"),
    ("O=[N+]([O-])c1ccc(Sc2c3ccccc3nc3ccccc23)cc1", "> 100 µM"),
    ("CCCCCCCCCCC(C)CCCCCCC(=O)OCC(COP(=O)([O-])OCC[N+](C)(C)C)OC(=O)CCCCCCC(C)CCCCCCCCCC (stereo not given)", "> 100 µM"),
    ("c1nc2cscc2c2cscc12", "> 100 µM"),
    ("COc1ccc2c([nH]c3cc(O)c(C)cc32)c1C=O", "> 25 µM"),
]

---

Known TGI of a selection of molecules
System: NCI-H226 lung
protocol.notes: NCI tumour cell line growth inhibition, 48 h

# molecule, relational.operator, TGI [µM]
measured = [
    ("N#Cc1ccc(/C=N/NC(=O)CSCC(=O)N/N=C/c2ccc(C#N)cc2)cc1", ">", 100),
    ("O=C1C=C(N2CCCC2)C(=O)c2c(O)ccc(O)c21", ">", 10),
    ("C\\C=C/C=C/C=C/C(=O)O", ">", 100),
    ("CC(=O)[C@H]1CC[C@H]2[C@@H]3CCC4=CC(=O)CC[C@]4(C)[C@H]3CC[C@]12C", "=", 45),
    ("C/C=C1/CN2[C@@H](C3=C[C@@H]4[C@@H]5N(C3=O)c3ccccc3[C@@]53CCN5C/C(=C/C)[C@@H]4C[C@H]53)C[C@@]34c5ccccc5N5C(=O)CC=C([C@H]1C[C@H]23)[C@H]54", "=", 16.5),
]

---

System: HCT-15 colon
protocol.notes: NCI tumour cell line growth inhibition, 48 h
Known TGI of a selection of compounds

# compound, target.of.assay, TGI
measured = [
    ("COc1ccc(C(=O)C(c2ccc(OC)cc2)C2(O)C(=O)Nc3c(C)cc(Cl)cc32)cc1 (stereo not given)", "HCT-15 colon", "> 100 µM"),
    ("O=C(/C=C/C=C/c1ccccc1)CCc1ccccc1", "HCT-15 colon", "> 100 µM"),
    ("CC(=O)Nc1nc(SCc2ccccc2)c2ncn(C(C)=O)c2n1", "HCT-15 colon", "> 100 µM"),
    ("CCN(CC)CCOc1ccc(Nc2ncc3cc(-c4ccc(O)cc4)c(=O)n(C)c3n2)cc1", "HCT-15 colon", "1.75 µM"),
    ("CC(=O)C1CC2(c3ccc(C)cc3)C(c3ccc(C)cc3)=C(c3ccc(C)cc3)C1(c1ccc(C)cc1)S2=O (stereo not given)", "HCT-15 colon", "> 100 µM"),
]

---

Known TGI of a selection of compounds
Test system: MCF7 breast
protocol.notes: NCI tumour cell line growth inhibition, 48 h
readout: TGI

# compound, result
records = [
    ("NC(Cc1ccccc1)=NCC(=O)O", "> 100 µM"),
    ("CCOC(=O)CN=C1Nc2ccccc2C(=O)N2CSCC12 (stereo unspecified)", "> 100 µM"),
    ("COc1cc(NC(=O)c2cc(OC)c3ccn(C)c3c2)cc2c1C[C@]1(C)CC[C@@H](O)C(C)(C)[C@H]1O2", "65.9 µM"),
    ("CN(C)c1ccc(/C=N/n2c(-c3ccccc3)nc3ccccc3c2=O)cc1", "> 100 µM"),
    ("O=C1OC(C2Cc3ccccc3C2=O)c2ccccc21 (stereo unspecified)", "> 100 µM"),
    ("COc1ccc(OC)c(C(=O)/C=C/c2cc(O)c(O)cc2F)c1", "14.3 µM"),
    ("C=C1CC[C@@]2(C#N)[C@H]3[C@H](CC[C@@H]2C)[C@@H](C)C[C@@H](CC(C)(C)C#N)[C@H]13", "15.8 µM"),
    ("O=C1CCCCCCCC/C=C/CCC(c2ccco2)O1 (stereo unspecified)", "> 100 µM"),
    ("NC(CCl)=NC1CN2CCC1CC2 (stereo unspecified)", "> 100 µM"),
    ("O=C1CSC(c2cccc(Cl)c2)N1c1c(O)c(Cl)cc(Br)c1Cl (stereo unspecified)", "29 µM"),
    ("O=c1[nH]nc(Cc2ccccc2)n1/N=C/c1ccc([N+](=O)[O-])o1", "> 100 µM"),
]
